# system-name: α2B Human Adrenergic Receptor (Homo sapiens, UniProt P18089)
# Construct: expressed in transfected cells; host or cells: Y-1 cells
# Sequence (P18089 whole entry): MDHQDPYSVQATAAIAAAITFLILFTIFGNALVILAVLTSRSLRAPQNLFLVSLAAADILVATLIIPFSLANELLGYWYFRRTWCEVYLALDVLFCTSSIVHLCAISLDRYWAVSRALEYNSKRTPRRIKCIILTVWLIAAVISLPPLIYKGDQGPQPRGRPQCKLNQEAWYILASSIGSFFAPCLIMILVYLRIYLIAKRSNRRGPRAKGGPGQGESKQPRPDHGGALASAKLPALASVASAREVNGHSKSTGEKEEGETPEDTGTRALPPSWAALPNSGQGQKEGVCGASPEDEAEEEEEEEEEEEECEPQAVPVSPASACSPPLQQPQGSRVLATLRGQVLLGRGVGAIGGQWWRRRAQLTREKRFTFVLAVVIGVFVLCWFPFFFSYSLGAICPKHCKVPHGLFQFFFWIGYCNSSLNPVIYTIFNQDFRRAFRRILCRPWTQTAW
# assay-info: Equilibrium competition binding, [3H] rauwolscine, membranes of transfected Y-1 cells
# particulars: cloned human receptor; [3H] rauwolscine; read-out: pKi Alpha-2 B (converted)
Please respond with reported log10 of Ki for every item in the list.
Use the decimal logarithm of Ki (nM).

Note down log10 of Ki recorded for Brc1c(NC2=NCCN2)ccc2nc(C(c3ccccc3)c3ccccc3)[nH]c12
2.82

Note down log10 of Ki recorded for Cn1cnc2cc(NC3=NCCN3)ccc21
1.67

Note down log10 of Ki recorded for CCCn1cnc2ccc(NC3=NCCN3)cc21
2.86

Note down log10 of Ki recorded for Brc1c(NC2=NCCN2)ccc2ncn(CC3CCCCC3)c12
1.57

Note down log10 of Ki recorded for c1cc2c(cc1NC1=NCCN1)ncn2CC1CCCCC1
2.56
